# protocol.notes: basal RPMI8226 mitochondrial membrane potential changes, profiling panel, cell-based, JC-1 fluorescence, 24 h, 100 nL compound (AID 1169); further: test concentration not given here
# condition.description: RPMI8226 myeloma, JC-1 mitochondrial potential fluorescence, higher = more signal
Would you mind labelling by z-score? At or over 0.2 is fulfilled, under is not fulfilled.

Does z-score meet or surpass 0.2 for CCCC[C@@H]1C[C@H]1[C@@H](NC(=O)c1ccco1)c1ccc(Cl)cc1 ?
not fulfilled

Does z-score meet or surpass 0.2 for COC(=O)[C@@]1(Cc2ccc(OC)cc2)[C@H]2c3cc(C(=O)N(C)C)n(Cc4cccc5ccccc45)c3C[C@H]2CN1C(=O)c1ccccc1 ?
not fulfilled

Does z-score meet or surpass 0.2 for C[N+](C)(C)CCCC[C@@H]1NC(=O)[C@@H]2C[C@H](C(=O)NCCCCCN)[C@H](c3cccc(OCCO)c3)N2C1=O ?
not fulfilled

Does z-score meet or surpass 0.2 for C=CCN(Cc1ccccc1)C(=O)C(c1cccs1)N(CCOCCO)C(=O)/C=C\C(=O)O (stereo not given) ?
not fulfilled

Does z-score meet or surpass 0.2 for Cc1ccc(C(C)CC(O)C2C=CC3C(=O)N(C)C(=O)C3N2NC(=O)OC(C)(C)C)o1 (stereo not given) ?
not fulfilled

Does z-score meet or surpass 0.2 for CCOc1cc(C(O)C2C=CC3C(=O)N(c4ccccc4)C(=O)C3N2Nc2ccccc2)ccc1O (stereo not given) ?
fulfilled

Does z-score meet or surpass 0.2 for O=C1NC(=O)C2C1C=CC(C(O)c1cccc3ccccc13)N2Nc1ccccn1 (stereo not given) ?
not fulfilled

Does z-score meet or surpass 0.2 for CN1C(=O)C2C=CC(C(O)C3CCCCC3)N(Nc3ccc([N+](=O)[O-])cc3[N+](=O)[O-])C2C1=O (stereo not given) ?
fulfilled

Does z-score meet or surpass 0.2 for CCCC=C(CCC)[C@@H](NS(=O)(=O)c1cccs1)c1ccc(C(=O)OC)cc1 ?
not fulfilled

Does z-score meet or surpass 0.2 for COCCOC(=O)N1C(=O)[C@@]2(c3cc(C#CC4=CCCCC4)ccc31)[C@H](C(=O)Nc1nc3ccccc3s1)[C@H]1C(=O)O[C@H](c3ccccc3)[C@H](c3ccccc3)N1[C@@H]2c1ccccc1OCCO ?
not fulfilled

Does z-score meet or surpass 0.2 for Cc1ccc(S[C@]2(C(=O)NC3CC3)CC(=O)N(C3Cc4ccccc4C3)[C@@H]2c2ccc(CO)cc2)cc1 ?
fulfilled

Does z-score meet or surpass 0.2 for CC(C)(C)OC(=O)CC[C@@]1(C(=O)NCC(O)CO)N=C(c2ccc(OCCCO)cc2)O[C@@H]1c1ccccc1N=[N+]=[N-] (stereo not given in full) ?
not fulfilled

Does z-score meet or surpass 0.2 for [N-]=[N+]=NCc1ccccc1C[C@]1(C(=O)N2CCOCC2)N=C(c2ccc(OCCCO)cc2)O[C@H]1c1ccccc1N=[N+]=[N-] ?
not fulfilled

Does z-score meet or surpass 0.2 for COCCOC(=O)N1C(=O)[C@@]2(c3ccccc31)[C@H](c1ccc(O)cc1)N1[C@H](c3ccccc3)[C@H](c3ccccc3)OC(=O)[C@H]1[C@@H]2C(=O)NC[C@H](O)c1ccccc1 ?
fulfilled

Does z-score meet or surpass 0.2 for CN(C)CCCCCCNC(=O)[C@@H]1C[C@@H]2C(=O)N[C@@H](CCCCN)C(=O)N2[C@@H]1c1cccc(OCCO)c1 ?
not fulfilled

---

# target.desc: Neurogenic locus notch homolog protein 3 (Homo sapiens) (UniProt Q9UM47)
# Sequence (Q9UM47 whole entry, looked up): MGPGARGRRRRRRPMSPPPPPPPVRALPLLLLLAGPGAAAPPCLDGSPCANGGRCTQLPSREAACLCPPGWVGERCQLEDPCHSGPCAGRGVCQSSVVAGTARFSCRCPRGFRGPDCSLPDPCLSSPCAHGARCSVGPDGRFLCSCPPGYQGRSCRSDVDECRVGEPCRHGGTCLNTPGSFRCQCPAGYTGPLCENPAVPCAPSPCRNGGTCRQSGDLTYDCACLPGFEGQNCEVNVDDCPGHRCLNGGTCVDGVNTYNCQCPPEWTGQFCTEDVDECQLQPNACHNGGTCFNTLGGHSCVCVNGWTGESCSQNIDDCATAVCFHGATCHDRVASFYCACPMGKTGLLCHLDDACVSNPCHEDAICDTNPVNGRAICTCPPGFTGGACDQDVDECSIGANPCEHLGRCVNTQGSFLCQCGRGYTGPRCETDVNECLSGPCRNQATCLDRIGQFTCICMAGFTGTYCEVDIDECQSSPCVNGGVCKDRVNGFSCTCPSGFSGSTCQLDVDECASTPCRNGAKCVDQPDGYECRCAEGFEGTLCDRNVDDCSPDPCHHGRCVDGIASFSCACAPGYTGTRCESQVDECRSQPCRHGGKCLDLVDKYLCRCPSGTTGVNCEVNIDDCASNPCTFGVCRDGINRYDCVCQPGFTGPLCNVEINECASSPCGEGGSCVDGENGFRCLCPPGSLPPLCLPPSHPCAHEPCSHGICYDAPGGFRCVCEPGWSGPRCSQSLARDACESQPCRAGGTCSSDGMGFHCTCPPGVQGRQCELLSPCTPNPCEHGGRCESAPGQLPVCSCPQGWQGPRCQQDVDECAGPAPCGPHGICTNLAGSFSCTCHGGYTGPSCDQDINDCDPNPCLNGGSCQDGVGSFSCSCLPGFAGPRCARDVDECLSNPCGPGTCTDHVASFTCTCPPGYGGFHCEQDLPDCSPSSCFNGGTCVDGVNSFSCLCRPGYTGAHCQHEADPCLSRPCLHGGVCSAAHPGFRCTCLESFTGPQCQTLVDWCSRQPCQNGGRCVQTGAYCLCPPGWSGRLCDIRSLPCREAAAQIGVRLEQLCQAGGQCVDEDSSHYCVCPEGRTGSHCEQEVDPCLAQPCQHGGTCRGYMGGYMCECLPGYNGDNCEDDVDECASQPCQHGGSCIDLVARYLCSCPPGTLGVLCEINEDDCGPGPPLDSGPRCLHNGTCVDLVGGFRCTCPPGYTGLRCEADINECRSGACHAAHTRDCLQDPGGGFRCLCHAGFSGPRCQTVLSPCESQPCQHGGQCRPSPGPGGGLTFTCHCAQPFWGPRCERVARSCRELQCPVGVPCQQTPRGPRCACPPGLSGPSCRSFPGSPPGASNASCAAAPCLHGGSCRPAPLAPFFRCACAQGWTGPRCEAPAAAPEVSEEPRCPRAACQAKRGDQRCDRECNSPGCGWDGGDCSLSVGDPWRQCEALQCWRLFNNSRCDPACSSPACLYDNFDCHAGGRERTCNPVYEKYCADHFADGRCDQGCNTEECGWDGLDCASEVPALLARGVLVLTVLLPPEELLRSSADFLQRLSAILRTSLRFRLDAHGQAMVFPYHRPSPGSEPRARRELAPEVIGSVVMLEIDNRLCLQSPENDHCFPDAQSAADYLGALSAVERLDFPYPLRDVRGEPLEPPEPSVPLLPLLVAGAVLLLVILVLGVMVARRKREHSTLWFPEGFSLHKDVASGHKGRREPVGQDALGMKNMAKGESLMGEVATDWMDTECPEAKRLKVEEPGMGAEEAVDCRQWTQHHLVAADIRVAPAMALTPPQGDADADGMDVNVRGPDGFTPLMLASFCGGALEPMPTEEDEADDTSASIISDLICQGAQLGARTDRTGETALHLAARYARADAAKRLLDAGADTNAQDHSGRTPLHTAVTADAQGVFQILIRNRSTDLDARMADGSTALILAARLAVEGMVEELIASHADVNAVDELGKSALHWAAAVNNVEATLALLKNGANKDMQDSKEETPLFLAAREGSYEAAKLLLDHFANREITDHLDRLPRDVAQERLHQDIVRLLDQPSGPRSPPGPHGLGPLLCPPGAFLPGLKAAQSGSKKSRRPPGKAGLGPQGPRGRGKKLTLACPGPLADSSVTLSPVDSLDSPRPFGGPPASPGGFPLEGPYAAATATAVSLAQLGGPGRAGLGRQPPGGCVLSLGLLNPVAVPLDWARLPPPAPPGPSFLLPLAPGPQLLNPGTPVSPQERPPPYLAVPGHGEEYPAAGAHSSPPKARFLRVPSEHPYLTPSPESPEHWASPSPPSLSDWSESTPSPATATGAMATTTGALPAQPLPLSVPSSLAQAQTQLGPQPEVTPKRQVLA
# protocol.notes: NOTCH3 binders on small-molecule microarray, primary screen, biochemical, 635/667 nm fluorescence (AID 1096)
# condition.description: NOTCH3 binding, 635 nm fluorescence, higher = more signal
quantity.kind: composite z-score
// no unit string in output, number only

Lab request: please report composite z-score under test system Neurogenic locus notch homolog protein 3 (Homo sapiens) (UniProt Q9UM47) for COC(=O)[C@@]1(Cc2ccc(F)cc2)[C@H]2c3cc(C(=O)N4CCCC4)n(Cc4ccc(C)o4)c3C[C@H]2CN1C(=O)c1ccccc1
0.556

Lab request: please report composite z-score under test system Neurogenic locus notch homolog protein 3 (Homo sapiens) (UniProt Q9UM47) for COc1ccc(CCN2C(=O)[C@@]3(c4ccc([N+](=O)[O-])cc4)CC(=O)N(C4CCCCC4)[C@@H]3c3ccc(CO)cc32)cc1
0.441

Lab request: please report composite z-score under test system Neurogenic locus notch homolog protein 3 (Homo sapiens) (UniProt Q9UM47) for CCOC(=O)C[C@H]1[C@H](OC(=O)Cc2ccc3c(c2)OCO3)[C@@H](NC(=O)c2ccc3ccccc3c2)c2cc(OCCCO)ccc2N1C(=O)c1ccccc1
0.742

Lab request: please report composite z-score under test system Neurogenic locus notch homolog protein 3 (Homo sapiens) (UniProt Q9UM47) for COC(=O)[C@@]1(Cc2ccccc2)[C@H]2c3cc(C(=O)N4CCCC4)n(Cc4nc5ccccc5[nH]4)c3C[C@H]2CN1C(=O)c1ccccc1
1.11

Lab request: please report composite z-score under test system Neurogenic locus notch homolog protein 3 (Homo sapiens) (UniProt Q9UM47) for COCCOC(=O)N1C(=O)[C@@]2(c3cc(C#CC4=CCCCC4)ccc31)[C@H](C(N)=O)[C@H]1C(=O)O[C@H](c3ccccc3)[C@H](c3ccccc3)N1[C@@H]2c1ccc(OCCO)cc1
1.01

Lab request: please report composite z-score under test system Neurogenic locus notch homolog protein 3 (Homo sapiens) (UniProt Q9UM47) for CC(C)[C@@H](CO)NC(=O)[C@H]1[C@@H](c2ccccc2)N(c2ccccc2)O[C@@H]1C
-0.271

Lab request: please report composite z-score under test system Neurogenic locus notch homolog protein 3 (Homo sapiens) (UniProt Q9UM47) for CCOC(=O)C=Cc1cc([N+](=O)[O-])ccc1O
-0.465

Lab request: please report composite z-score under test system Neurogenic locus notch homolog protein 3 (Homo sapiens) (UniProt Q9UM47) for COc1ccc(COC2OC[C@]3(C)[C@H]4C5=C(CN3C(=O)OC(C)(C)C)[C@H](C)C(CO)C(CO)C5CC[C@@H]24)cc1 (some centres undefined)
1.06

Lab request: please report composite z-score under test system Neurogenic locus notch homolog protein 3 (Homo sapiens) (UniProt Q9UM47) for Cc1ccc(C(C)CC(O)C2C=CC3C(=O)N(c4ccccc4)C(=O)C3N2Nc2ccc([N+](=O)[O-])cc2)o1 (centres undefined)
1.1

Lab request: please report composite z-score under test system Neurogenic locus notch homolog protein 3 (Homo sapiens) (UniProt Q9UM47) for COCCCNC(=O)[C@@]1(Cc2ccccc2N=[N+]=[N-])N=C(c2ccc(OCCCO)cc2)O[C@H]1c1ccccc1N=[N+]=[N-]
1.1

Lab request: please report composite z-score under test system Neurogenic locus notch homolog protein 3 (Homo sapiens) (UniProt Q9UM47) for CC(C)c1ccc(NN2C(C(O)c3cc(C(F)(F)F)cc(C(F)(F)F)c3)C=CC3C(=O)N(c4ccccc4)C(=O)C32)cc1 (centres undefined)
0.245

Lab request: please report composite z-score under test system Neurogenic locus notch homolog protein 3 (Homo sapiens) (UniProt Q9UM47) for COCCOC(=O)N1C(=O)[C@@]2(c3cc(C#CC4(O)CCCCCC4)ccc31)[C@H](c1ccc(O)cc1)N1[C@H](c3ccccc3)[C@H](c3ccccc3)OC(=O)[C@H]1[C@@H]2C(=O)Nc1nc2ccccc2s1
1.1

Lab request: please report composite z-score under test system Neurogenic locus notch homolog protein 3 (Homo sapiens) (UniProt Q9UM47) for CN1C(=O)C2C=CC(C(O)Cc3ccccc3)N(Nc3ccccc3)C2C1=O (centres undefined)
0.297

Lab request: please report composite z-score under test system Neurogenic locus notch homolog protein 3 (Homo sapiens) (UniProt Q9UM47) for CCN(CC)c1ccc(N2CC=CC34O[C@@H]5/C=C\CCC(C)OC(=O)C5[C@H]3C(=O)N(C(CO)C(C)C)[C@@H]4C2=O)cc1 (some centres undefined)
-0.0778

---

# protocol.notes: basal RPMI8226 mitochondrial membrane potential changes, profiling panel, cell-based, JC-1 fluorescence, 24 h, 100 nL compound (AID 1169); further: test concentration not given here
# condition.description: RPMI8226 myeloma, JC-1 mitochondrial potential fluorescence, higher = more signal
Kindly state z-score for each of the entries shown.

Quick one: z-score for CC(C)(C)OC(=O)CC[C@]1(C(=O)O)N=C(c2ccc(OCCCO)cc2)O[C@H]1c1ccccc1N=[N+]=[N-] ?
-0.506

Quick one: z-score for CC(=O)N1Cc2ccccc2C[C@@]2(COC(c3ccc(OCCCO)cc3)=N2)C1=O ?
-0.894

Quick one: z-score for C=CCOC(=O)[C@@H]1[C@H]2C(=O)O[C@H](c3ccccc3)[C@H](c3ccccc3)N2[C@H](c2ccc(OCCOC(=O)[C@@H]3C[C@@H]4C(=O)N[C@@H](CCCC[N+](C)(C)C)C(=O)N4[C@@H]3c3cccc(OCCO)c3)cc2)[C@@]12C(=O)Nc1ccc(I)cc12 ?
-0.637

Quick one: z-score for CC(C)c1ccc(NN2C(C(O)C(c3ccccc3)c3ccccc3)C=CC3C(=O)N(c4ccccc4)C(=O)C32)cc1 (stereo unspecified) ?
-0.107

Quick one: z-score for CCOC(=O)[C@H]1C/C=C/C[C@H](C(=O)OCC)C(=O)O[C@H]2[C@@H](OC)O[C@H](CO)[C@@H](OC(=O)Nc3ccc(C#N)cc3)[C@@H]2OC1=O ?
-0.975

Quick one: z-score for C[C@@H]1ON(c2cccc(C(=O)OC(C)(C)C)c2)[C@H](c2ccc(Br)cc2)[C@H]1C(=O)N1C(=O)OC[C@H]1Cc1ccccc1 ?
0.0362

Data origin: PubChem BioAssay
